- MEASURED_TARGET: panel of more than 300 wild-type and mutant kinases (313 kinase panel) (Homo sapiens, UniProt Q13976)
- TEST_SUMMARY: Kinase profiling in a biochemical assay panel (mobility shift assays and ELISA), %-inhibition at 1 μM; selectivity entropy
- DETAILS: kinase PGK; 1 μM

{"CHEMICAL_STRING": "Cc1ccc(C(=O)Nc2ccc(CN3CCN(C)CC3)c(C(F)(F)F)c2)cc1C#Cc1cnc2cccnn12", "%-inhibition of PGK (%)": -0.866}
{"CHEMICAL_STRING": "COc1cc(Nc2c(C#N)cnc3cc(OCCCN4CCN(C)CC4)c(OC)cc23)c(Cl)cc1Cl", "%-inhibition of PGK (%)": -3.22}
{"CHEMICAL_STRING": "CO[C@H]1C[C@@H]2CC[C@@H](C)[C@@](O)(O2)C(=O)C(=O)N2CCCC[C@H]2C(=O)O[C@H]([C@H](C)C[C@@H]2CC[C@@H](OC(=O)C(C)(CO)CO)[C@H](OC)C2)CC(=O)[C@H](C)/C=C(\\C)[C@@H](O)[C@@H](OC)C(=O)[C@H](C)C[C@H](C)/C=C/C=C/C=C/1C", "%-inhibition of PGK (%)": -5.57}
{"CHEMICAL_STRING": "CCCS(=O)(=O)Nc1ccc(F)c(C(=O)c2c[nH]c3ncc(-c4ccc(Cl)cc4)cc23)c1F", "%-inhibition of PGK (%)": -4.33}
{"CHEMICAL_STRING": "C[C@@H](Oc1cc(-c2cnn(C3CCNCC3)c2)cnc1N)c1c(Cl)ccc(F)c1Cl", "%-inhibition of PGK (%)": -2.6}
{"CHEMICAL_STRING": "O=S(=O)(c1cccc2cnccc12)N1CCCNCC1", "%-inhibition of PGK (%)": 44}

###

Below, each entry is listed with its recorded %-inhibition of MAP3K1.
- MEASURED_TARGET: panel of more than 300 wild-type and mutant kinases (313 kinase panel) (Homo sapiens, UniProt Q13233)
- Sequence (Q13233 whole entry, change not shown): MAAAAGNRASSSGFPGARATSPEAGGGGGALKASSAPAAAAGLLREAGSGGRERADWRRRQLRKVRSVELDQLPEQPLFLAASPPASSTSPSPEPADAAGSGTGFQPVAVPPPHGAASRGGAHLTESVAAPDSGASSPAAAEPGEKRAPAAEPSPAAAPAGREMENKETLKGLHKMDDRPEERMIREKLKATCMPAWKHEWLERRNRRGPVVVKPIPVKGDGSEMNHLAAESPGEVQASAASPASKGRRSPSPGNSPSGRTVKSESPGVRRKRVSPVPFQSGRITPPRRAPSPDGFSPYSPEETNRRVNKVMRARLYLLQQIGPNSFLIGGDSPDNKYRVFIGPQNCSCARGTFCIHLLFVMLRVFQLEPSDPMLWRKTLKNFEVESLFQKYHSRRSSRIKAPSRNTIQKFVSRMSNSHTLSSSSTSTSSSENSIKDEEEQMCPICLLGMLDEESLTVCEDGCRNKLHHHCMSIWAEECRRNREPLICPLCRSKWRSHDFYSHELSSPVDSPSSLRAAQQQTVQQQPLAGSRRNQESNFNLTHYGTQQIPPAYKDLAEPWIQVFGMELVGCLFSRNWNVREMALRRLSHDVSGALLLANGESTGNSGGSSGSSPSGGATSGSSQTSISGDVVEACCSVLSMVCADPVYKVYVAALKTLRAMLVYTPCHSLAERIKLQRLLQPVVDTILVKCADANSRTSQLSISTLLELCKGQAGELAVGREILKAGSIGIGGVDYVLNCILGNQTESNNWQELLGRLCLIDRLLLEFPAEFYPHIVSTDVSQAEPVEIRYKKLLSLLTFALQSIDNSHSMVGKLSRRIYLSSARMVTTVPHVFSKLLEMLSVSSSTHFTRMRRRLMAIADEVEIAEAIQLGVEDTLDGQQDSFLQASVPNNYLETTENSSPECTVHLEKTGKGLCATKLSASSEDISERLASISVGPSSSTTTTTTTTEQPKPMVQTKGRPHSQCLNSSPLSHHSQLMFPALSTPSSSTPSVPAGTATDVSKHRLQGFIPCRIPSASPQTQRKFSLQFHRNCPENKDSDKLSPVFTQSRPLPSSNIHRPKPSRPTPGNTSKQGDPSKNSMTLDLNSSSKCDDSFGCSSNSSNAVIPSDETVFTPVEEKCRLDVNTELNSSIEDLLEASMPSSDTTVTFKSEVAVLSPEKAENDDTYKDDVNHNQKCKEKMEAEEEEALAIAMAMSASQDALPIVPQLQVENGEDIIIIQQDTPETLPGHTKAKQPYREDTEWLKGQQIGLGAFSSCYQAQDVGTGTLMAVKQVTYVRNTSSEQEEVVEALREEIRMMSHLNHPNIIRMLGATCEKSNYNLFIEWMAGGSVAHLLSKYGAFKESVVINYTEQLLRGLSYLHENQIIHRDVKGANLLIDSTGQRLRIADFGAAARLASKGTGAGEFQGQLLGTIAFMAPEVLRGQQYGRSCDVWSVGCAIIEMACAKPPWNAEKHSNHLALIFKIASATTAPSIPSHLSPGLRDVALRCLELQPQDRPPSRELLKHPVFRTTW
- TEST_SUMMARY: Kinase profiling in a biochemical assay panel (mobility shift assays and ELISA), %-inhibition at 1 μM; selectivity entropy
- DETAILS: kinase MAP3K1; compound at 1 μM

{"CHEMICAL_STRING": "COc1cc(Nc2c(C#N)cnc3cc(OCCCN4CCN(C)CC4)c(OC)cc23)c(Cl)cc1Cl", "%-inhibition of MAP3K1": "60%"}
{"CHEMICAL_STRING": "CCCS(=O)(=O)Nc1ccc(F)c(C(=O)c2c[nH]c3ncc(-c4ccc(Cl)cc4)cc23)c1F", "%-inhibition of MAP3K1": "13%"}
{"CHEMICAL_STRING": "CC(C)(C)c1nc(-c2cccc(NS(=O)(=O)c3c(F)cccc3F)c2F)c(-c2ccnc(N)n2)s1", "%-inhibition of MAP3K1": "-40%"}
{"CHEMICAL_STRING": "C[C@@H](Oc1cc(-c2cnn(C3CCNCC3)c2)cnc1N)c1c(Cl)ccc(F)c1Cl", "%-inhibition of MAP3K1": "28%"}
{"CHEMICAL_STRING": "Cc1cn(-c2cc(NC(=O)c3ccc(C)c(Nc4nccc(-c5cccnc5)n4)c3)cc(C(F)(F)F)c2)cn1", "%-inhibition of MAP3K1": "-18%"}
{"CHEMICAL_STRING": "O=S(=O)(c1cccc2cnccc12)N1CCCNCC1", "%-inhibition of MAP3K1": "1.37%"}
{"CHEMICAL_STRING": "N#CC[C@H](C1CCCC1)n1cc(-c2ncnc3[nH]ccc23)cn1", "%-inhibition of MAP3K1": "-10%"}
{"CHEMICAL_STRING": "COc1cc2c(Nc3ccc(Br)cc3F)ncnc2cc1OCC1CCN(C)CC1", "%-inhibition of MAP3K1": "-7.43%"}
{"CHEMICAL_STRING": "CO[C@H]1C[C@@H]2CC[C@@H](C)[C@@](O)(O2)C(=O)C(=O)N2CCCC[C@H]2C(=O)O[C@H]([C@H](C)C[C@@H]2CC[C@@H](OCCO)[C@H](OC)C2)CC(=O)[C@H](C)/C=C(\\C)[C@@H](O)[C@@H](OC)C(=O)[C@H](C)C[C@H](C)/C=C/C=C/C=C/1C", "%-inhibition of MAP3K1": "7%"}

###

- Tested on: panel of more than 300 wild-type and mutant kinases (313 kinase panel)
- TEST_SUMMARY: Kinase profiling in a biochemical assay panel (mobility shift assays and ELISA), %-inhibition at 1 μM; selectivity entropy
- DETAILS: kinase LYNb; compound at 1 μM
REPORTED_ENDPOINT: %-inhibition of LYNb (%)

{"COMPOUND": "CO[C@H]1C[C@@H]2CC[C@@H](C)[C@@](O)(O2)C(=O)C(=O)N2CCCC[C@H]2C(=O)O[C@H]([C@H](C)C[C@@H]2CC[C@@H](OC(=O)C(C)(CO)CO)[C@H](OC)C2)CC(=O)[C@H](C)/C=C(\\C)[C@@H](O)[C@@H](OC)C(=O)[C@H](C)C[C@H](C)/C=C/C=C/C=C/1C [temsirolimus]", "REPORTED_ENDPOINT": "%-inhibition of LYNb", "OUTPUT_UNIT": "%", "RESULT_VALUE": -10}
{"COMPOUND": "CNC(=O)c1cc(Oc2ccc(NC(=O)Nc3ccc(Cl)c(C(F)(F)F)c3)c(F)c2)ccn1 [regorafenib]", "REPORTED_ENDPOINT": "%-inhibition of LYNb", "OUTPUT_UNIT": "%", "RESULT_VALUE": 85}
{"COMPOUND": "COc1cc2nccc(Oc3ccc(NC(=O)C4(C(=O)Nc5ccc(F)cc5)CC4)cc3)c2cc1OC [cabozantinib]", "REPORTED_ENDPOINT": "%-inhibition of LYNb", "OUTPUT_UNIT": "%", "RESULT_VALUE": 97}
{"COMPOUND": "CO[C@H]1C[C@@H]2CC[C@@H](C)[C@@](O)(O2)C(=O)C(=O)N2CCCC[C@H]2C(=O)O[C@H]([C@H](C)C[C@@H]2CC[C@@H](OCCO)[C@H](OC)C2)CC(=O)[C@H](C)/C=C(\\C)[C@@H](O)[C@@H](OC)C(=O)[C@H](C)C[C@H](C)/C=C/C=C/C=C/1C [everolimus]", "REPORTED_ENDPOINT": "%-inhibition of LYNb", "OUTPUT_UNIT": "%", "RESULT_VALUE": -1.66}
{"COMPOUND": "CCCS(=O)(=O)Nc1ccc(F)c(C(=O)c2c[nH]c3ncc(-c4ccc(Cl)cc4)cc23)c1F [vemurafenib]", "REPORTED_ENDPOINT": "%-inhibition of LYNb", "OUTPUT_UNIT": "%", "RESULT_VALUE": 62}
{"COMPOUND": "CC(=O)Nc1cccc(-n2c(=O)n(C3CC3)c(=O)c3c(Nc4ccc(I)cc4F)n(C)c(=O)c(C)c32)c1 [trametinib]", "REPORTED_ENDPOINT": "%-inhibition of LYNb", "OUTPUT_UNIT": "%", "RESULT_VALUE": -2.58}
{"COMPOUND": "CC(C)(C)c1nc(-c2cccc(NS(=O)(=O)c3c(F)cccc3F)c2F)c(-c2ccnc(N)n2)s1 [dabrafenib]", "REPORTED_ENDPOINT": "%-inhibition of LYNb", "OUTPUT_UNIT": "%", "RESULT_VALUE": 86}

###

- Tested on: forty-four human cancer cell lines
- TEST_SUMMARY: Cell proliferation assay (ATPlite, 72 hours) in the 44 cell line Oncolines panel
- Assay type: cell-based
- DETAILS: Homo sapiens, 4-4 cell, read-out: cell panel IC50, SR
pIC50: −log10 of the molar value.
Param threshold (5) applies to pIC50; output 1 (yes) when value >= threshold, 0 (no) when value < threshold.

{"CHEMICAL_STRING": "CN(C)C/C=C/C(=O)Nc1cc2c(Nc3ccc(F)c(Cl)c3)ncnc2cc1O[C@H]1CCOC1", "GROUP_LABEL": "1 (yes)"}
{"CHEMICAL_STRING": "CCN(CC)CCNC(=O)c1c(C)[nH]c(/C=C2\\C(=O)Nc3ccc(F)cc32)c1C", "GROUP_LABEL": "1 (yes)"}
{"CHEMICAL_STRING": "C#Cc1cccc(Nc2ncnc3cc(OCCOC)c(OCCOC)cc23)c1", "GROUP_LABEL": "1 (yes)"}
{"CHEMICAL_STRING": "O=S(=O)(c1cccc2cnccc12)N1CCCNCC1", "GROUP_LABEL": "0 (no)"}

###

- MEASURED_TARGET: panel of more than 300 wild-type and mutant kinases (313 kinase panel) (Homo sapiens)
- TEST_SUMMARY: Kinase profiling in a biochemical assay panel (mobility shift assays and ELISA), %-inhibition at 1 μM; selectivity entropy
- DETAILS: kinase PKACα; 1 μM

{"COMPOUND": "COc1cc2c(Nc3ccc(Br)cc3F)ncnc2cc1OCC1CCN(C)CC1", "%-inhibition of PKACα [%]": 1.29}
{"COMPOUND": "CS(=O)(=O)CCNCc1ccc(-c2ccc3ncnc(Nc4ccc(OCc5cccc(F)c5)c(Cl)c4)c3c2)o1", "%-inhibition of PKACα [%]": 0.663}
{"COMPOUND": "CCCS(=O)(=O)Nc1ccc(F)c(C(=O)c2c[nH]c3ncc(-c4ccc(Cl)cc4)cc23)c1F", "%-inhibition of PKACα [%]": -4}
{"COMPOUND": "Cc1nc(Nc2ncc(C(=O)Nc3c(C)cccc3Cl)s2)cc(N2CCN(CCO)CC2)n1", "%-inhibition of PKACα [%]": 0.736}
{"COMPOUND": "CO[C@H]1C[C@@H]2CC[C@@H](C)[C@@](O)(O2)C(=O)C(=O)N2CCCC[C@H]2C(=O)O[C@H]([C@H](C)C[C@@H]2CC[C@@H](OC(=O)C(C)(CO)CO)[C@H](OC)C2)CC(=O)[C@H](C)/C=C(\\C)[C@@H](O)[C@@H](OC)C(=O)[C@H](C)C[C@H](C)/C=C/C=C/C=C/1C", "%-inhibition of PKACα [%]": -6}
{"COMPOUND": "C[C@@H](Oc1cc(-c2cnn(C3CCNCC3)c2)cnc1N)c1c(Cl)ccc(F)c1Cl", "%-inhibition of PKACα [%]": -6}
{"COMPOUND": "Cc1ccc(Nc2nccc(N(C)c3ccc4c(C)n(C)nc4c3)n2)cc1S(N)(=O)=O", "%-inhibition of PKACα [%]": 2}
{"COMPOUND": "COc1cc2nccc(Oc3ccc(NC(=O)C4(C(=O)Nc5ccc(F)cc5)CC4)cc3)c2cc1OC [cabozantinib]", "%-inhibition of PKACα [%]": -4.67}
{"COMPOUND": "COc1cc(Nc2c(C#N)cnc3cc(OCCCN4CCN(C)CC4)c(OC)cc23)c(Cl)cc1Cl", "%-inhibition of PKACα [%]": 58}
{"COMPOUND": "CO[C@H]1C[C@@H]2CC[C@@H](C)[C@@](O)(O2)C(=O)C(=O)N2CCCC[C@H]2C(=O)O[C@H]([C@H](C)C[C@@H]2CC[C@@H](OCCO)[C@H](OC)C2)CC(=O)[C@H](C)/C=C(\\C)[C@@H](O)[C@@H](OC)C(=O)[C@H](C)C[C@H](C)/C=C/C=C/C=C/1C", "%-inhibition of PKACα [%]": -6}
{"COMPOUND": "CC(=O)Nc1cccc(-n2c(=O)n(C3CC3)c(=O)c3c(Nc4ccc(I)cc4F)n(C)c(=O)c(C)c32)c1", "%-inhibition of PKACα [%]": 8.52}
{"COMPOUND": "CNC(=O)c1cc(Oc2ccc(NC(=O)Nc3ccc(Cl)c(C(F)(F)F)c3)c(F)c2)ccn1", "%-inhibition of PKACα [%]": -5.47}
